Listing of recorded EC50 by entry.
# assay-target: MK2 (Homo sapiens (Human), UniProt P49137)
# Sequence (P49137 whole entry): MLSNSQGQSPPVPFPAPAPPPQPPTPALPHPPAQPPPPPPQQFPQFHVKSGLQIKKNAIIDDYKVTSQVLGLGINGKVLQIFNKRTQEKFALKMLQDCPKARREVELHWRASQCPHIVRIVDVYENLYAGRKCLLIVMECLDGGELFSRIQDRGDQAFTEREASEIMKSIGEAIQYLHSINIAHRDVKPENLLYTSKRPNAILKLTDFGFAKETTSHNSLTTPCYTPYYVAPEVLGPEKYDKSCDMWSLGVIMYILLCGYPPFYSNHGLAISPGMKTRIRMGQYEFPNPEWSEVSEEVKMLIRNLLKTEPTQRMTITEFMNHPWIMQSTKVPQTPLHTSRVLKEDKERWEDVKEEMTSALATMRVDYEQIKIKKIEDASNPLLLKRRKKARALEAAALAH
# experiment-description: MK2 cellular assay, total and phospho-Hsp27 (Serine 78) by MSD ELISA (Thp1)
# Type: cell-based
# assay-context: Thp-1 cells, 1 hour compound, 50 ng/mL LPS 45 minutes, p-HSP27 (Ser78)/total HSP27; read-out: pHSP27 signaling EC50

Recorded EC50, per entry:
COc1nc(Cl)nc(Oc2ccc3c(ccc4sc5c(c43)NC[C@@H](C)NC5=O)n2)n1 ... > 1000 nM
C[C@@H]1CNc2c(sc3ccc4nc(Oc5nc(Cl)ncc5CN5CCCC(C)(C)C5)ccc4c23)C(=O)N1 ... < 100 nM
CCN1CCN(Cc2cnc(Cl)nc2Oc2ccc3c(ccc4sc5c(c43)NC[C@@H](C)NC5=O)n2)CC1 ... > 1000 nM
C[C@@H]1CNc2c(sc3ccc4nc(Nc5nc(Cl)nc(N6CCN(C)CC6)n5)ccc4c23)C(=O)N1 ... 101 to 500 nM

// compound C[C@@H]1CNc2c(sc3ccc4nc(Oc5nc(Cl)nc6c5CS(=O)(=O)CC6)ccc4c23)C(=O)N1 , assay MK2 (Homo sapiens (Human), UniProt P49137), EC50 value: 101 to 500 nM

// compound C[C@@H]1CNc2c(sc3ccc4nc(Oc5nc(Cl)ncc5C5=CCOCC5)ccc4c23)C(=O)N1 , assay MK2 (Homo sapiens (Human), UniProt P49137), EC50 value: 101 to 500 nM

// compound C[C@@H]1CNc2c(sc3ccc4nc(Oc5nc(Cl)ncc5Br)ccc4c23)C(=O)N1 , assay MK2 (Homo sapiens (Human), UniProt P49137), EC50 value: < 100 nM

// compound C[C@@H]1CNc2c(sc3ccc4nc(Oc5nc(Cl)ncc5-c5cccnc5)ccc4c23)C(=O)N1 , assay MK2 (Homo sapiens (Human), UniProt P49137), EC50 value: < 100 nM

// compound C[C@@H]1CNc2c(sc3ccc4nc(Oc5cnnc(Cl)c5)ccc4c23)C(=O)N1 , assay MK2 (Homo sapiens (Human), UniProt P49137), EC50 value: 101 to 500 nM

// compound C[C@@H]1CNc2c(sc3ccc4nc(Nc5cc(Cl)nc(OCCN6CCN(C)CC6)n5)ccc4c23)C(=O)N1 , assay MK2 (Homo sapiens (Human), UniProt P49137), EC50 value: 101 to 500 nM
